System: ATP;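 note: ATP exposure 15 min at 22 °C before imaging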
Procedure Details: switch fluorescence ratio, 500 uM ATP over buffer (Cy3 cluster intensity, sum of 5 cycles each) (fold (ratio)); higher = stronger signal-on switching upon ATP binding; sequences stand for … in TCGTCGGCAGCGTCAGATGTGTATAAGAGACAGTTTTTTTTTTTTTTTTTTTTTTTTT…TC
Condition Info: aptamer strand: ATP DNA aptamer (quencher-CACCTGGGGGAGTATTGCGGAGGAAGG + anchor), 100 nM annealed; ATP concentration: 500 uM
Listed here: items and their measured switch fluorescence ratio.

Please review the entries below; each comes with its answer.
ATTCTTATTT = 0.998
GCTACGGGTA = 1.08
ATGGTCCGAG = 0.998

Form field, switch fluorescence ratio with ATP, item GGGTTCCGTG : 1.01

Form field, switch fluorescence ratio with ATP, item TTTTTAGGGA : 0.99

Form field, switch fluorescence ratio with ATP, item AGATCGGATA : 1.01

Form field, switch fluorescence ratio with ATP, item CCGCGTCGCT : 1.32

Form field, switch fluorescence ratio with ATP, item ATAGGCAGAG : 1
